Biological target: T1, S100A4 (UniProt P26447 1-101)
T1 construct: S100A4; the NMR analysis speaks of residues 1-101; The His-tag is named only for the SPR experiment (two His-tags in the dimer); also called WT S100A4; u-S100A4; source: expressed and purified as described previously (Badyal et al., 2011)
Assay: kinetic scheme (estimates or values required for thermodynamic balance); S100A4 dimer with a single Ca2+ bound; values in blue in the scheme, not experimental measurements
Conditions: both partners purified
quantityMeasured: Kd (nM)
Express it in nM; write the number only.

Input line: What Kd value was documented for this binder, QRELEDATETADAMNREVSSLKNKLRRGDLPFVVPRRMA (nonmuscle myosin IIA heavy chain (NM-MHC IIA), residues Q1897-A1935; also called u-M39; WT M39; source: synthetic peptide; bought: GL Biochem Ltd (Shanghai, China), purity >95% by HPLC) [M39 peptide of nonmuscle myosin IIA heavy chain (residues Q1897-A1935)] ?
Output line: 1000
